molecular target: T1, human EGFRvIII expressed on cells (human, UniProt P00533 298-1210); assay: flow cytometry, F98-npEGFRvIII cells; further: test concentration or dose not given here
T1 construct: the F98-npEGFRvIII line was obtained from ATCC and its construct is not described; also called F98-npEGFRvIII; F98-EGFRvIII
Can you tell me MFI for the items I'm about to list?
One number for each entry.

Some solved entries appear below for comparison.
11F10 (antibody, V domains shown, Hybridoma supernatant (AlivaMab mouse); captured/detected via mouse Fc) VH: QVTLKESGPVLVKPIETLTLTCTVCGFSLSNPRMGVSWIRQPPGKALEWLGHIFSSDEKSYRLFLRSRLSISKDTSKSQVVLTMTNMDPVDTATYYCARDSSDYEGYFDYWGQGTLVTVSS VL: EIVMTQSPATLSVSPGERTTLSCRASQSVGSNLAWYQQKPGQAPRLLIYGASTRASGVPARFSGSGSGTEFTLTISSLQSEDFAVYSCQEYNNWPFTFGQGTKVEIK : 3280
46E10 (antibody, V domains shown, Hybridoma supernatant (AlivaMab mouse); captured/detected via mouse Fc) VH: QVTLKESGPVLVKPTETLTLTCTVSGFSLSNARMGVSWIRQPPGKALEWLAHIFSTDEKSIRRSLRSRLTLSKDTSKSQVVLIMTNMDPVDTATYYCARDSSNYEGYFDYWGQGTLVTVSS VL: EVVMTQSPPNLSVSPGERATLSCRASQSVTSNFAWYQQRPGQSPRLLLYGASTRATGVPGRFSGSGSGTENILTISSLQSEDFAVYFCQQYKDWPFTFGPGSKVDIK : 2990
42G9 (antibody, V domains shown, Hybridoma supernatant (AlivaMab mouse); captured/detected via mouse Fc; also called mAb 42G9) VH: QVTLKESGPVLLKPTETLTLTCTVSGFSLSNPRMGVSWIRQPPGKALEWFAHIFSTDEKSLKLSLRSRLTLSKDTSKSQVVLTMTNMAPVDSATYYCARDSSNYEGYFDFWGQGTLVTVSS VL: EVVLTQSPATLSVSPGERATLSCRASQSVRSNLAWYQQKSGQAPRLLIYGSTIRATGVPARFSGSGSGTEFTLTISSLQSEDFAVYYCQQYSDWPFTFGPGTKVDIK : 3250
12H6 (antibody, V domains shown, Hybridoma supernatant (AlivaMab mouse); captured/detected via mouse Fc) VH: QVTLKESGPVLVKPTETLTLTCTVSGFSLSNARMGVSWIRQPPGKALEWLAHIFSTDEKSIRRSLRSRLTLSKDTSKSQVVLTMTNMDPVDTATYYCARDSSNYEGYFDYWGQGTLVTVSS VL: EVVMTQSPATLSVSPGERATLSCRASQGVSSNFAWYQQRPGQSPRLLLYGASTRATGVPGRFSGSGSGTENILTISSLQSEDFAIYFCQQYKDWPFTFGPGSKVDIK : 3440

Hey, quick one: what's MFI for each of these?
1. 21E7 (antibody, V domains shown, Hybridoma supernatant (AlivaMab mouse); captured/detected via mouse Fc) VH: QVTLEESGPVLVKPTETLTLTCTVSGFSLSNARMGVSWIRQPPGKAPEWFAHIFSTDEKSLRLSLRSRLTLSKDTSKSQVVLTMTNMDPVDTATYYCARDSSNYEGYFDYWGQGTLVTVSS VL: DVVLTQSPATLSVSPGERATLSCRASQSVNSNLAWYQQNPGQAPRLLIFGSSTRATGIPASFSGSGSGTEFTLTINSLQSEHSAVYYCQQYNDWPFTFGPGTKVDIK
2. 49B11 (antibody, V domains shown, Hybridoma supernatant (AlivaMab mouse); captured/detected via mouse Fc) VH: QVTLKESGPVLVKPTETLTLTCTVSGFSLSNVRMGVSWIRQPPGKALEWFAHIFSSDEKSIRRSLRSRLTLSKDTSKSQVVLTMTNMDPVDTATYYCARDSSNYEGYFDYWGQGTLVTVSS VL: EMEVTQSPATLSVSPGERATLSCRASQNIGSDLAWYQQQSGQAPRLLISGASTRATGVPTRFSGSGSGTDFTLTITSLQSEDFAVYYCQQYNDWPFTFGPGTKVDIK
3. 12B2 (antibody, V domains shown, Hybridoma supernatant (AlivaMab mouse); captured/detected via mouse Fc) VH: QVTLKESGPVLVKPTETLTLTCTVSGFSLSNPRMGVSWIRQPPGKALEWLGHIFSSDEKSYRLSLRSRLSISKDTSKSQVVLTMTNMDPVDTATYYCVRDSSNYGGYFDYWGQGTLVTVSS VL: EVVMTQSPATLSVSPGERATLSCRASQSVINNLAWYQQKPGQAPRLLIYGTSTRATDIPARFSGSGSGTEFTLTISSLQSEDFAVYYCQDYNNWPFTFGPGTKVDIK

3100
2980
2750

Hey, quick one: what's MFI for each of these?
1. 14C11 (antibody, V domains shown, Hybridoma supernatant (AlivaMab mouse); captured/detected via mouse Fc) VH: QVTLKESGPVLVKPTETLTLTCTVSGFSLNNARMGVSWIRQPPGKALEWFAHIFSTDEKSFRTSLRSRLTLSKDTSKSQVVLTMTNMDPVDTATYYCARDSSNYEGYFDYWGQGILVTVSS VL: EIVMTQSPATLSVSPGERATLSCRASQSVSNNLAWYQQKPGQAPRLLIYGASTRATGVPARFSGSDSGTEFSLTISSLQSEDFAVYFCQQYKDWPFTFGPGTKVEIK
2. 29D5 (antibody, V domains shown, Hybridoma supernatant (AlivaMab mouse); captured/detected via mouse Fc) VH: QVTLKESGPVLVKPTETLTLTCTVSGFSLSNPRMGVSWLRQPPGKALEWFAHIFSTDEKSYSPSLRGRLTVSKDTSKSQVVLTLTNMDPVDTATYYCARDSSNYEGYFDYWGQGTLVTVSS VL: KIVMTQSPATLSVSPGERATLSCRANQIVSSNLAWYQQKPGQAPRLLVFGTSTRATGIPIRFSGSGSGTEFTLTVSSLQSEDFAVYVCQQYNDWPFTFGPGTKVDIK
3. 32A10 (antibody, V domains shown, Hybridoma supernatant (AlivaMab mouse); captured/detected via mouse Fc) VH: QVTLKESGPVLVKPTETLTLTCTVSGFSLSNARMGVSWIRQPPGKALEWLAHIFSTDEKSIRRSLRSRLTLSKDTSKSQVVLTMTNMDPVDTATYFCARDSSNYEGYFDYWGQGTLVTVSS VL: EVVMTQSPATLSVSPGERVTLSCRASQSVSSNFAWYQQRPGQAPRLLLYGATTRATGLPGRFSGSGSGTENILTISSLQSEDFAIYFCQQYKDWPFTFGPGSKVDIK
4. 20B9 (antibody, V domains shown, Hybridoma supernatant (AlivaMab mouse); captured/detected via mouse Fc) VH: QVTLKESGPVLVKPTETLTLTCTVSGFSLSNARMGVSWIRQPPGKALEWLGHIFSTDEKSYSTSLRGRITISKDTSRGLVVLTLTNMDPVDTATYYCARDSSNYEGYFDFWGPGFLVTVSS VL: EIVMTQSPATLSVSPGERATLSCRVSQSIGANLAWYQQKFGQAPRLLIYGASTRATGIPVRFSGGGSGTEFTLTISSLQSEDFAIYSCQQYIYWPFTFGPGTTVDIK

[3210, 2830, 3350, 3420]
